Target: EGFR (HCC827 cells) (Homo sapiens, UniProt P00533, DEL746-750)
Construct: endogenous in cells; host or cells: HCC827
Sequence (P00533 with tags, fused parts or gaps DEL746-750): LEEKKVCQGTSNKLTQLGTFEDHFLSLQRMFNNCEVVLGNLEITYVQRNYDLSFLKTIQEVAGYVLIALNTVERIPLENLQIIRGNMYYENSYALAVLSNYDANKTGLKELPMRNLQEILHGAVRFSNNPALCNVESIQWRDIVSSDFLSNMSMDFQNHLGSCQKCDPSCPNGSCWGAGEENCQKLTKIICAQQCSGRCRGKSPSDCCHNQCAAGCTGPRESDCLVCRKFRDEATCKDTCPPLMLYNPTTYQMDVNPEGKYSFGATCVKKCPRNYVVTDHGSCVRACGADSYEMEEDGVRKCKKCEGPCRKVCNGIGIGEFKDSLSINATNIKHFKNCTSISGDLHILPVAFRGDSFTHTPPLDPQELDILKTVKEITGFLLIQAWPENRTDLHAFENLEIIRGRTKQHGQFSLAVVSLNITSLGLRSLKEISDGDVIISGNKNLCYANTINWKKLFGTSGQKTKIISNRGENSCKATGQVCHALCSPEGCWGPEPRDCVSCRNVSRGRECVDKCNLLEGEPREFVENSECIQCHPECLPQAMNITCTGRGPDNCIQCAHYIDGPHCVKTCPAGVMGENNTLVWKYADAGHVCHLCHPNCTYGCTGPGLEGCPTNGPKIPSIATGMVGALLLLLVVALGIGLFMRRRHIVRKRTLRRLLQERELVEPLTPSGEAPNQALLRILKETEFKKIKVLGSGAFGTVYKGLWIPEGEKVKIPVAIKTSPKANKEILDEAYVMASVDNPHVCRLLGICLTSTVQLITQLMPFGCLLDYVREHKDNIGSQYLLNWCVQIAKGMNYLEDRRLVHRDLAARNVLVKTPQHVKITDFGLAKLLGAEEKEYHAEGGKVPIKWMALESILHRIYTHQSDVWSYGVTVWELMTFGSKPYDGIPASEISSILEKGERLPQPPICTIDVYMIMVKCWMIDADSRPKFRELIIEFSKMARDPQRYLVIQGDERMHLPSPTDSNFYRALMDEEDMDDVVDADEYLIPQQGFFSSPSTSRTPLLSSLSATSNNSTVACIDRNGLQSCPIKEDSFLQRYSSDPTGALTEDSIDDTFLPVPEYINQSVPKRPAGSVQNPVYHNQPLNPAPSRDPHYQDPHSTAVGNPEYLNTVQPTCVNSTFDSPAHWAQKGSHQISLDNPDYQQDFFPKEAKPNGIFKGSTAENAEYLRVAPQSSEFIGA
Assay: EGFR degradation HTRF assay, HCC827 cells
Assay type: cell-based
Conditions: HCC827, 16h treatment
In this scheme, each record receives a class according to its DC50; the ranges are low end: < 5 nM; middle: ≥ 5 nM and < 20 nM; high end: ≥ 20 nM

The following compounds have reported results that may help.
{"compound": "CCc1cc(Nc2ncc(Br)c(Nc3ccc4nccnc4c3P(C)(C)=O)n2)c(OC)cc1N1CCC(N2CCN(C(=O)[C@@H]3CCN(c4ccc5c(c4)C(=O)N(C4CCC(=O)NC4=O)C5=O)C3)CC2)CC1 (stereo partly drawn)", "class assignment": "low end"}
{"compound": "COc1cc(N2CCC(N3CCN(CCc4ccc(C5CCC(=O)NC5=O)cc4)CC3)CC2)ccc1Nc1ncc(Cl)c(Nc2ccccc2N(C)S(C)(=O)=O)n1 (stereo not drawn)", "class assignment": "middle"}
{"compound": "COc1cc(N2CCC(N3CCN(C(=O)CCCCN4CCN(c5ccc6c(c5)C(=O)N(C5CCC(=O)NC5=O)C6=O)CC4)CC3)CC2)ccc1Nc1ncc(Cl)c(Nc2ccccc2N(C)S(C)(=O)=O)n1 (stereo not drawn)", "class assignment": "low end"}
{"compound": "COc1cc(N2CCN(CC3CCN(c4ccc(N5CCC(=O)NC5=O)c(F)c4)CC3)CC2)c(C)cc1Nc1ncc(Br)c(Nc2ccc3nccnc3c2P(C)(C)=O)n1", "class assignment": "high end"}
{"compound": "CP(C)(=O)c1c(Nc2nc(Nc3ccc(N4CCN(C5CN(CCC6CCN(c7ccc(C8CCC(=O)NC8=O)c(F)c7)CC6)C5)CC4)c(F)c3)ncc2Br)ccc2nccnc12 (stereo not drawn)", "class assignment": "middle"}
{"compound": "COc1cc(N2CCC(N(C)CC3CCN(c4ccc(N5CCC(=O)NC5=O)c(F)c4)CC3)CC2)c(C)cc1Nc1ncc(Br)c(Nc2ccc3nccnc3c2P(C)(C)=O)n1", "class assignment": "high end"}

Query: For this compound, which bin applies? COc1cc(N2CCN(CCCOc3ccc(OC4CCC(=O)NC4=O)cc3)CC2)c(C)cc1Nc1ncc(Br)c(Nc2ccc3nccnc3c2P(C)(C)=O)n1 (stereo not drawn)
Response: high end

Query: Assign a category based on measured DC50 for COc1cc(N2CCC(N3CCN(C(=O)C4CCN(CC5CCN(c6ccc7c(c6)C(=O)N(C6CCC(=O)NC6=O)C7=O)CC5)CC4)CC3)CC2)ccc1Nc1ncc(Cl)c(Nc2ccccc2NS(C)(=O)=O)n1 (stereo not drawn) and give only the class name.
Response: middle

Query: Which category does the recorded DC50 put COc1cc(N2CCC(N3CCN(CCc4ccc(NC5CCC(=O)NC5=O)cc4)CC3)CC2)ccc1Nc1ncc(Cl)c(Nc2ccccc2P(C)(C)=O)n1 (stereo not drawn) in?
Response: middle

Query: Assign a bin to CCc1cc(Nc2ncc(Br)c(Nc3ccc4nccnc4c3P(C)(C)=O)n2)c(OC)cc1N1CCC(N2CCN(CC3CCN(c4ccc(C5CCC(=O)NC5=O)cc4)C3)CC2)CC1 (stereo not drawn)
Response: low end

Query: Which DC50 band matches CCc1cc(Nc2ncc(Br)c(Nc3ccc4nccnc4c3P(C)(C)=O)n2)c(OC)cc1N1CCC(N2CCN(CCc3ccc(C4CCC(=O)NC4=O)cn3)CC2)CC1 (stereo not drawn) ?
Response: middle

Query: Place this compound in its band: `COc1cc(N2CCN(CC3CCN(c4ccc(N5CCC(=O)NC5=O)c(C)c4)CC3)CC2)c(C)cc1Nc1ncc(Br)c(Nc2ccc3nccnc3c2P(C)(C)=O)n1`
Response: high end

Query: Please indicate the class for CCc1cc(Nc2ncc(Br)c(Nc3ccc4nccnc4c3P(C)(C)=O)n2)c(OC)cc1N1CCC(N2CCN(CCCN3CCN(c4ccc5c(c4)C(=O)N(C4CCC(=O)NC4=O)C5=O)CC3)CC2)CC1 (stereo not drawn) based on its DC50.
Response: low end

Query: Exam item: assign COc1cc(N2CCN(CC3CCN(c4ccc(C5CCC(=O)NC5=O)cc4)CC3)CC2)ccc1Nc1ncc(Cl)c(Nc2ccccc2P(C)(C)=O)n1 (stereo not drawn) to the correct category.
Response: middle

Query: Where would `COc1cc(N2CCC(N3CCN(CCc4ccc(N5CCC(=O)NC5=O)cc4)CC3)CC2)ccc1Nc1ncc(Cl)c(Nc2ccccc2N(C)S(C)(=O)=O)n1` land among the classes by reported DC50?
Response: high end

Query: Entry CCc1cc(Nc2ncc(Br)c(Nc3ccc4nccnc4c3P(C)(C)=O)n2)c(OC)cc1N1CCC(N2CCN(CCc3cccc4c3n(C)c(=O)n4C3CCC(=O)NC3=O)CC2)CC1 (stereo not drawn) belongs to which category?
Response: low end

Query: Could you place CCc1cc(Nc2ncc(Br)c(Nc3ccc4nccnc4c3P(C)(C)=O)n2)c(OC)cc1N1CCC(N2CCN(C(=O)[C@@H]3CCN(c4cc(F)c(C5CCC(=O)NC5=O)c(F)c4)C3)CC2)CC1 (stereo partly drawn) in its proper category? Many thanks.
Response: low end
